Numbers sourced from patent US20160272626A1.

- Experimental System: rat TAAR1 (Rattus norvegicus, UniProt Q923Y9)
- Construct: expressed in transfected cells; membrane preparation
- Sequence (Q923Y9 whole entry): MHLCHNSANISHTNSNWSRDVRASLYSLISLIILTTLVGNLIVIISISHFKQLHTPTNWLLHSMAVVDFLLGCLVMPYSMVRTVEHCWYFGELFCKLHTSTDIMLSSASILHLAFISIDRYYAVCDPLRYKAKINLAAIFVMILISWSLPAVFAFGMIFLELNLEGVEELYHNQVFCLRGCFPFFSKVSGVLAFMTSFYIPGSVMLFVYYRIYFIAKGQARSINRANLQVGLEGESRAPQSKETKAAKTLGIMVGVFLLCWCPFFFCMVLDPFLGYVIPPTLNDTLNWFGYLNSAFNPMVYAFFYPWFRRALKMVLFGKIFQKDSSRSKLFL
- Protocol Notes: Radioligand binding assay on rat TAAR1
- Measurement Context: rat TAAR1, HEK-293 membranes, second value of cell mouse/rat
Where a name gives a salt, the structure may show the parent alone.
Property Measured: Ki (µM)

Illustrative cases are given below, each with its answer.
# Compound, Property Measured, Measurement Units, Value Reported
rows = [
    ("N#Cc1cc(NC(=O)c2cnc(C(F)(F)F)cn2)ccc1[C@@H]1CNCCO1 [Example 2, hydrochloride]", "Ki", "µM", 0.0186),
    ("COc1cncc(C(=O)Nc2ccc([C@@H]3CNCCO3)c(F)c2)n1 [Example 7, hydrochloride]", "Ki", "µM", 0.068),
    ("O=C(Nc1ccc([C@@H]2CNCCO2)c(F)c1)c1cnc(C2CC2)cn1 [Example 17, hydrochloride]", "Ki", "µM", 0.0076),
]

[A] O=C(Nc1ccc([C@@H]2CNCCO2)cc1F)c1cncc(OCC(F)(F)F)n1
[B] O=C(Nc1ccc([C@@H]2CNCCO2)c(F)c1)c1cnc(C(F)(F)F)cn1 [Example 1, hydrochloride]
Prompt: Consider entries A and B . Which has the numerically lower Ki? Write down the label of the entry you select.
Response: A
(A: 0.0053 µM, B: 0.009 µM)
